Where these numbers come from: a protein production outcome set (Wang et al. 2014)

protocolDetails: label from the status in PepcDB records
measuredParameter: protein production

polymerSequence | result
MELELDDDVFFADISKQLNLLITDEDEQNPISLSSSVSFQGLFRGNYQTSATPYMMYNEQINYNVIRESKGTGVFIPRSSQPRRKHNHHPHQKKQGRFIGSFIPKQQFPHHGHDNNLTTLNNNNQESITFHHASTNPRRTYRDAASLFT | failed
MSEMAGDSSTSEDKIHKPNRERNVSGELDVFEATRYFSDFNEPTTIEYSRIQIQKQSIVTENRQKRVHPETEEHLPKPRVVVIKPQKKEMTRGGGKKLTSFLNSLLRSAGLKKKSKSAPEVETPRVERMRRKSCVVTTHAADASPLTNAGAWSLNARRRSFDEKDLKKSDQKLNIRFCESLYSDQRVETKDPNAGDKNDVIGGCESDSSSESDLFELDLFAKSNP | failed
MGGSNMKLDFSVAVHSILYLDAHRDSKVASRELAQSLHLNPVMIRNILSVLHKHGYLTGTVGKNGGYQLDLALADMNLGDLYDLTIPPTISYARFITGPSKTDEQADQSPIAANISETLTDLFTVADRQYRAYYHQFTMADLQADLNHHGTFLQHEQDSES | not failed
MSVLDISIIIANYNTEEFLRNCLNSIKSTVKNVKYEVIVTDNNSKDDSVTMIKNEFPWVKLIESKINGGFAYANNLAIKESSGKYIFLLNTDTVLLKDVIEKMVNYMDENKDVGLLGPKLLNRDMSHQTSVSGFPSFKREFYHIYKLKNILKIPILKKIIVAMSGKIGSKDVEQYMMNFKSIDEPREVQVLVGAALLVRRNVIDKIGMLDERYFMYYEEIDFCYQANKAGFKAVYYPNGEIIHYIGQAATKSRILEHHHHHH | not failed

----------
protocolDetails: label from the status in PepcDB records
measuredParameter: protein production

polymerSequence | result
MHKDELLELHEQMVTIMEYFRDDMDSVDPDLFDAYQELDVRPSDVHKSKSEHKHAVFVLGNSLATAMSEDEFSDAGRVSKRMKELAEDAERKLLEHHHHHH | not failed
MSHLLEKAAARGDLAALERLLDAGADLEWQHKGTGRTALLAATIAGHQPAVALLLARGANVQQPCKALGYSPLAWAASHGDTALAELLIAHGAALEQASPELQRTALMNAAQAGHEAMVALLLKAGANPSPVDFQQRNAWSLAEENGHAQVMQQLEQAGTGAPPAPAPAPSLPWPPLVPGTDSSADPVTQVRAYTLALYAWEQRGNALGHEALDAAFWAEPQQLLERFCTLRPRAYPRASYGYPTTHAEADELLGCQLLKPAQAEVLVRDPASRALCYEHRFVVKRVAGQWRIDSVKRRLAGTQKWANAIL | failed
MIITVASFKGGVGKTTTAVHLSAYLALQGETLLIDGDPNRSATGWGKRGSLPFKVVDERQAAKYAPKYQNIVIDTQARPEDEDLEALADGCDLLVIPSTPDALALDALILTIETLQKLGNNRFRILLTIIPPYPSKDGDEARQLLTTAGLPLFKRGIKRYSAFQKASLNGVVVSEVSDSKAGIAWSDYKATGKEIVEEILILEHHHHHH | not failed
MCVRLENENFKAELSESGAELTSLKSKNTDNEYIWTANSSYWGRHAPILFPIVGKVKDNKYRIADKVYNLSQHGFARDMEFEVEDNASDRAVFKLVWNDETLEKYPYKFELRVIYVLKDSTVDVTYNVKNVDDKDIFFSIGAHPGFNCPVIGKQSENDELQFEDYYIEFEKRETTGVVKLNSSNLLSRNTSPFLYASNILNLSEKLFKQGALILKDLDSTSISLKNDKNTTSVTVSFEGFPYVGLWSKPEGAPFVCIEPWFGHADYEDFNGDFREKEDGLKLEVGKEFECTYSITIGELEHHHHHH | not failed
MDQPWNANIHYDALLDAMVPLGTQCVLDVGCGDGLLAARLARRIPYVTAVDIDAPVLRRAQTRFANAPIRWLHADIMTAELPNAGFDAVVSNAALHHIEDTRTALSRLGGLVTPGGTLAVVTFVTPSLRNGLWHLTSWVACGMANRVKGKWEHSAPIKWPPPQTLHELRSHVRALLPGACIRRLLYGRVLVTWRAPVLEHHHHHH | failed
